Origin of measurements: patent US20260242478A1

target: T1, Anti-CD28 Fab (SEQ ID NOs: 696, 697); experiment: phage ELISA; biotinylated anti-CD28 Fab on neutravidin plate, bound phage detected with anti-M13-HRP
T1 construct: In the phage ELISA the Fab was biotinylated and captured on neutravidin coated plates
T1 sequence (VH, as listed by the source, chain 1 of 2): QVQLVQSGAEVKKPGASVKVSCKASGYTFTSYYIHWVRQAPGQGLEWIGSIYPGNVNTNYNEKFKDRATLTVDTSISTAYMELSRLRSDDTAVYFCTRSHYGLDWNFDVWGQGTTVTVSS
T1 sequence (VL, as listed by the source, chain 2 of 2): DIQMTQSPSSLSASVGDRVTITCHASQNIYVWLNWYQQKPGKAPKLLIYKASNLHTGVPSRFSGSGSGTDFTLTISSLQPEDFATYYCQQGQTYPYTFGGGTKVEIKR
Please provide measured Phage binding ELISA, Anti-CD28 Fab signal for the entries that follow.
// return a plain number; no unit text

Consider the binder shown here: SCSAGATYTWPACL [Phage-1605] What is its recorded Phage binding ELISA, Anti-CD28 Fab signal?
1.34

Consider the binder shown here: SCSAGAMYTWPTCL [Phage-1613] What is its recorded Phage binding ELISA, Anti-CD28 Fab signal?
1.31

Consider the binder shown here: TCAAGAAYTWPVCF [Phage-1609] What is its recorded Phage binding ELISA, Anti-CD28 Fab signal?
1.32

Consider the binder shown here: SCAAGAHYPWPECL [Phage-1607] What is its recorded Phage binding ELISA, Anti-CD28 Fab signal?
1.32

Consider the binder shown here: RCAAVFSYTWPPCL [Phage-1618] What is its recorded Phage binding ELISA, Anti-CD28 Fab signal?
1.29

Consider the binder shown here: QCSAGATYAWPFCL [Phage-1615] What is its recorded Phage binding ELISA, Anti-CD28 Fab signal?
1.29

Consider the binder shown here: TCAAGATYEWPSCL [Phage-1612] What is its recorded Phage binding ELISA, Anti-CD28 Fab signal?
1.32

Consider the binder shown here: SCADGAIWEWPWCF [Phage-1611] What is its recorded Phage binding ELISA, Anti-CD28 Fab signal?
1.32
